B1: Hairpin Ribozyme (parent)
chain: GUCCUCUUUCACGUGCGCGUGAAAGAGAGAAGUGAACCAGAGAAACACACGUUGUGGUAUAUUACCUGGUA

Variants of: B1
Test: self-cleavage, relative activity (ratio to wild type); higher = more cleavage; co-transcriptional
READOUT_TYPE: self-cleavage
Give the figure by itself; no unit, no explanation.

A selection of reference data follows.
A26C A36U: 0.556
C4A U53C: 0.206
C3A G29C: 0.102
G42C A59G: 0.195
U7C U33G: 0.129

Let us examine a further case.
Give me measured self-cleavage, please, for this variant: A49U U53G 0.167

Values from the RNAGym collection of RNA variant scans (doi:10.7554/elife.80360)
